Kindly state IC50 for each of the entries shown.
Subject Of Test: CDK7/CyclinH/MAT1 (Homo sapiens (Human), UniProt P50613)
Sequence (P50613 whole entry): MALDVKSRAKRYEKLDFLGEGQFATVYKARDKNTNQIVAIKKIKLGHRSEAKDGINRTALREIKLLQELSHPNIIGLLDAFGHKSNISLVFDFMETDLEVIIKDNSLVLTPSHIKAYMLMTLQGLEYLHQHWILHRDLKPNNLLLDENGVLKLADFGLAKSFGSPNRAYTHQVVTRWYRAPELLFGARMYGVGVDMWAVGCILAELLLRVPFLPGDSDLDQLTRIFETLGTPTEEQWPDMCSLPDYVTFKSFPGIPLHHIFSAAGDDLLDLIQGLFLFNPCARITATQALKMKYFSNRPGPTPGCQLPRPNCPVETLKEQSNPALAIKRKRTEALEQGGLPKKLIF
Sequence (P51946 whole entry partner): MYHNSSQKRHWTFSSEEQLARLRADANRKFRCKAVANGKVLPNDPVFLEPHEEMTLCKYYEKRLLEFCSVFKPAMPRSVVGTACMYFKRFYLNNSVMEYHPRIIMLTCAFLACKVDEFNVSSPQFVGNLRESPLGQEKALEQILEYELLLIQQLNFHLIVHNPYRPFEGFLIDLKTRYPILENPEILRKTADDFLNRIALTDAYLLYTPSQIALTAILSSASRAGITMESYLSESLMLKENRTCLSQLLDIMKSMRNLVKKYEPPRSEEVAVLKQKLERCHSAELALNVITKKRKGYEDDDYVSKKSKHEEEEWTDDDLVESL
Sequence (P51948 whole entry partner): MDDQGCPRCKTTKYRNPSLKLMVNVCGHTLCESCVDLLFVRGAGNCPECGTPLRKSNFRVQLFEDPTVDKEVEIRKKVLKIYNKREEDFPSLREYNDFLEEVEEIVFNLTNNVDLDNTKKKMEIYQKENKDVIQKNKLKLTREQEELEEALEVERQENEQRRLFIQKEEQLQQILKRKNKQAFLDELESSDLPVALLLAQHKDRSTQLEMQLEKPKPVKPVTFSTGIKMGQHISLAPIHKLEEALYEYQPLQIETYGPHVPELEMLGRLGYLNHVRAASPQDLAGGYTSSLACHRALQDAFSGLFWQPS
Assay Summary: In vitro CDK7/CyclinH/MAT1 enzyme activity assay (TR-FRET)
Condition Notes: Ulight-MBP peptide, 25° C. 60 minutes
Answers are plain numbers, in nM.

| Compound | Unit Name | IC50 |
| --- | --- | --- |
| CP(C)(=O)c1c2ccc3c(c[nH]c13)-c1nc(ncc1C(F)(F)F)N[C@H]1CCCCN(CCCCNC2=O)C1 | nM | 1.4 |
| CP(C)(=O)c1c2ccc3c(c[nH]c13)-c1nc(ncc1C(F)(F)F)N[C@H]1CCCN(CCCCNC2=O)C1 | nM | 1.2 |
| CN1CCCCN2CCCC[C@@H](C2)Nc2ncc(C(F)(F)F)c(n2)-c2c[nH]c3c(P(C)(C)=O)c(ccc23)C1=O | nM | 1.1 |

Hello, I would appreciate it if you could give IC50 for each entry below.
1. CN1CCCCN2CCC[C@@H](C2)Nc2ncc(C(F)(F)F)c(n2)-c2c[nH]c3c(P(C)(C)=O)c(ccc23)C1=O [Formate of compound 1]
2. CP(C)(=O)c1c2ccc3c(c[nH]c13)-c1nc(ncc1C(F)(F)F)N[C@H]1CCCN(CCCCCCO2)C1

Result string:
1
1.6
